method-summary: Tmax in cynomolgus monkey plasma at 15 mg/kg administered via oral gavage by RP-HPLC analysis
Format: ADME, organism-based, Macaca fascicularis
endpoint-label: Tmax (h)

[1] C[C@@H](CC(=O)O)CC(=O)c1c(CCCCCCc2ccccc2)n(C)c2ccc(Cl)cc12
[2] C[C@H](CC(=O)O)CC(=O)c1c(CCCCCCc2ccccc2)n(C)c2ccc(Cl)cc12
In: Hi! Which is lower in terms of Tmax, the first one 1 or the second one 2 ? Pick one; state its label.
Out: 2
(2: 0.8 h, 1: 2.5 h)

---

method-summary: AUC (0 to 24 hrs) in cynomolgus monkey plasma at 30 mg/kg administered via oral gavage by RP-HPLC analysis
Type: ADME, organism-based, Macaca fascicularis
Design: dose 30 mg/kg, time < 24 hr, route oral
endpoint-label: AUC(0-t) at 24 h (µM·h)

Some compounds with recorded AUC(0-t) at 24 h:
CC(CC(=O)O)CC(=O)n1c(CCCCCc2ccccc2)cc2ccc(Cl)cc21 (racemic) = 294
CCCCCCc1cc2ccc(Cl)cc2n1C(=O)CC(C)CC(=O)O (racemic) = 55
C[C@H](CC(=O)O)CC(=O)c1c(CCCCCCc2ccccc2)n(C)c2ccc(Cl)cc12 = 684

[A] CCCCCCc1c(C(=O)C[C@H](C)CC(=O)O)c2cc(Cl)ccc2n1C
[B] CCCCCCc1c(C(=O)CC(C)CC(=O)O)c2cc(Cl)ccc2n1C (racemic)
[C] CC(CC(=O)O)CC(=O)c1c(CCCCCCc2ccccc2)n(C)c2ccc(Cl)cc12 (racemic)
In: Order the entries by their reported AUC(0-t) at 24 h, beginning at the minimum. Return the labels ranked in the requested order, please.
Out: A, B, C

---

target-desc: Oxoeicosanoid receptor 1 (Homo sapiens)
Sequence (Q8TDS5 whole entry): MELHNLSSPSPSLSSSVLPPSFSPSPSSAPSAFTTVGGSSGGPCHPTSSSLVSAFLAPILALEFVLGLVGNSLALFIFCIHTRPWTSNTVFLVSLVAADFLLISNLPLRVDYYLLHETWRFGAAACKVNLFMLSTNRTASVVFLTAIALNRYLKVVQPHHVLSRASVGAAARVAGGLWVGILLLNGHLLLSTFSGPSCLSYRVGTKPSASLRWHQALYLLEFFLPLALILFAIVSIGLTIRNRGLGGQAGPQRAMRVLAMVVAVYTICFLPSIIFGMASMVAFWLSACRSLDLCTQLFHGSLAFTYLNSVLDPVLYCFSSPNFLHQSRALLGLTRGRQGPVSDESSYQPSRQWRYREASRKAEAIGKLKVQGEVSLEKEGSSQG
method-summary: Antagonist activity at OXE receptor in human neutrophils assessed as inhibition of 5-oxo-ETE-induced calcium mobilization incubated for 2 mins followed by 5-oxo-ETE addition by fluorescence assay
Format: functional
endpoint-label: IC50 (nM)
Quick reminder: number only, in nM, skip the unit.

In: Dear colleague, I am looking for the recorded IC50 of the following molecule: CCCCC/C=C\C[C@H](O)/C=C/C=C\C=C\C(=O)CCCC(=O)O
Out: 500

---

method-summary: Tmax in cynomolgus monkey plasma at 10 mg/kg administered via oral gavage by RP-HPLC analysis
Format: ADME, organism-based, Macaca fascicularis
endpoint-label: Tmax (h)
Quick reminder: number only, in h, skip the unit.

In: Dear colleague, I am looking for the recorded Tmax of the following compound: C[C@H](CC(=O)O)CC(=O)c1c(CCCCCCc2ccccc2)n(C)c2ccc(Cl)cc12
Out: 1.2

---

method-summary: Plasma concentration in cynomolgus monkey at 30 mg/kg administered via oral gavage after 24 hrs by chiral-HPLC analysis
Assay type: ADME, organism-based, Macaca fascicularis
endpoint-label: concentration at 24 h (nM)
Quick reminder: number only, in nM, skip the unit.

In: Dear colleague, I am looking for the recorded concentration at 24 h of the following molecule: C[C@H](CC(=O)O)CC(=O)c1c(CCCCCCc2ccccc2)n(C)c2ccc(Cl)cc12
Out: 1000

---

method-summary: AUC (0 to 24 hrs) in cynomolgus monkey plasma at 15 mg/kg administered via oral gavage by RP-HPLC analysis
Format: ADME, organism-based, Macaca fascicularis
Set-up: time < 24 hr, dose 15 mg/kg, route oral
endpoint-label: AUC(0-t) at 24 h (µM·h)

[P] C[C@H](CC(=O)O)CC(=O)c1c(CCCCCCc2ccccc2)n(C)c2ccc(Cl)cc12
[Q] C[C@@H](CC(=O)O)CC(=O)c1c(CCCCCCc2ccccc2)n(C)c2ccc(Cl)cc12
In: Hi! Which is lower in terms of AUC(0-t) at 24 h, the first one P or the second one Q ? Pick one; state its label.
Out: P

---

method-summary: Half life in cynomolgus monkey plasma at 1 mg/kg administered via oral gavage by RP-HPLC analysis
Assay type: ADME, organism-based, Macaca fascicularis
endpoint-label: half-life (min)
Quick reminder: number only, in min, skip the unit.

In: Dear colleague, I am looking for the recorded half-life of the following compound: C[C@H](CC(=O)O)CC(=O)c1c(CCCCCCc2ccccc2)n(C)c2ccc(Cl)cc12
Out: 54

---

method-summary: AUC (0 to 24 hrs) in cynomolgus monkey plasma at 5 mg/kg administered via oral gavage by RP-HPLC analysis
Assay type: ADME, organism-based, Macaca fascicularis
Parameters: dose 5 mg/kg, time < 24 hr, route oral
endpoint-label: AUC(0-t) at 24 h (µM·h)
Quick reminder: number only, in µM·h, skip the unit.

In: Dear colleague, I am looking for the recorded AUC(0-t) at 24 h of the following molecule: C[C@H](CC(=O)O)CC(=O)c1c(CCCCCCc2ccccc2)n(C)c2ccc(Cl)cc12
Out: 78

---

method-summary: Tmax in cynomolgus monkey plasma at 30 mg/kg administered via oral gavage by RP-HPLC analysis
Type: ADME, organism-based, Macaca fascicularis
endpoint-label: Tmax (h)

Some compounds with recorded Tmax:
CCCCCCc1c(C(=O)C[C@H](C)CC(=O)O)c2cc(Cl)ccc2n1C = 1
CC(CC(=O)O)CC(=O)n1c(CCCCCc2ccccc2)cc2ccc(Cl)cc21 (racemic) = 2

[A] C[C@H](CC(=O)O)CC(=O)c1c(CCCCCCc2ccccc2)n(C)c2ccc(Cl)cc12
[B] CC(CC(=O)O)CC(=O)c1c(CCCCCCc2ccccc2)n(C)c2ccc(Cl)cc12 (racemic)
[C] CCCCCCc1c(C(=O)CC(C)CC(=O)O)c2cc(Cl)ccc2n1C (racemic)
[D] CCCCCCc1cc2ccc(Cl)cc2n1C(=O)CC(C)CC(=O)O (racemic)
In: Arrange these compounds by their Tmax, starting with the largest number. Return the labels ranked in the requested order, please.
Out: B, A, D, C

---

method-summary: Half life in cynomolgus monkey plasma at 15 mg/kg administered via oral gavage by RP-HPLC analysis
Type: ADME, organism-based, Macaca fascicularis
endpoint-label: half-life (h)

[I] C[C@H](CC(=O)O)CC(=O)c1c(CCCCCCc2ccccc2)n(C)c2ccc(Cl)cc12
[II] C[C@@H](CC(=O)O)CC(=O)c1c(CCCCCCc2ccccc2)n(C)c2ccc(Cl)cc12
In: Between the entries labelled I and II , which has a larger half-life value on record? Pick one; state its label.
Out: II
(II: 9.3 h, I: 3.4 h)

---

method-summary: Cmax in cynomolgus monkey plasma at 1 mg/kg administered via oral gavage by RP-HPLC analysis
Format: ADME, organism-based, Macaca fascicularis
Parameters: dose 1 mg/kg, route oral
endpoint-label: Cmax (µM)
Quick reminder: number only, in µM, skip the unit.

In: Dear colleague, I am looking for the recorded Cmax of the following compound: C[C@H](CC(=O)O)CC(=O)c1c(CCCCCCc2ccccc2)n(C)c2ccc(Cl)cc12
Out: 4.5

---

method-summary: Plasma concentration in cynomolgus monkey at 30 mg/kg administered as oral gavage measured after 8 hrs by RP-HPLC analysis
Format: ADME, organism-based, Macaca fascicularis
endpoint-label: concentration at 8 h (nM)
Quick reminder: number only, in nM, skip the unit.

In: Dear colleague, I am looking for the recorded concentration at 8 h of the following compound: CCCCCCc1c(C(=O)C[C@H](C)CC(=O)O)c2cc(Cl)ccc2n1C
Out: 1600

---

method-summary: AUC (0 to 24 hrs) in cynomolgus monkey plasma at 2 mg/kg administered via oral gavage by RP-HPLC analysis
Format: ADME, organism-based, Macaca fascicularis
Set-up: dose 2 mg/kg, time < 24 hr, route oral
endpoint-label: AUC(0-t) at 24 h (µM·h)
Quick reminder: number only, in µM·h, skip the unit.

In: Dear colleague, I am looking for the recorded AUC(0-t) at 24 h of the following molecule: C[C@H](CC(=O)O)CC(=O)c1c(CCCCCCc2ccccc2)n(C)c2ccc(Cl)cc12
Out: 26

---

method-summary: AUC (0 to 24 hrs) in cynomolgus monkey plasma at 1 mg/kg administered via oral gavage by RP-HPLC analysis
Format: ADME, organism-based, Macaca fascicularis
Set-up: time < 24 hr, dose 1 mg/kg, route oral
endpoint-label: AUC(0-t) at 24 h (µM·h)
Quick reminder: number only, in µM·h, skip the unit.

In: Dear colleague, I am looking for the recorded AUC(0-t) at 24 h of the following compound: C[C@H](CC(=O)O)CC(=O)c1c(CCCCCCc2ccccc2)n(C)c2ccc(Cl)cc12
Out: 13

---

method-summary: Cmax in cynomolgus monkey plasma at 15 mg/kg administered via oral gavage by RP-HPLC analysis
Format: ADME, organism-based, Macaca fascicularis
Set-up: dose 15 mg/kg, route oral
endpoint-label: Cmax (µM)

[a] C[C@@H](CC(=O)O)CC(=O)c1c(CCCCCCc2ccccc2)n(C)c2ccc(Cl)cc12
[b] C[C@H](CC(=O)O)CC(=O)c1c(CCCCCCc2ccccc2)n(C)c2ccc(Cl)cc12
In: Between the entries labelled a and b , which has a larger Cmax value on record? Pick one; state its label.
Out: a
(a: 79 µM, b: 32 µM)

Reference for the values: ChEMBL document CHEMBL4251757
